Test: yeast display, Sf9 membrane polyspecificity reagent, FACS + sequencing; frameworks hold sequencing errors
propertyMeasured: polyreactivity (PSR sort gate)

Use these answered entries as a reference point.
QVQLVESGGGLVQAGGSLRLSCAASGSTFYSYAMGWYSQAPGKERELVARIRWSGYTYSADSVKGRFTISRDNAKNTVYLQMNSLKPEDTAVSYCAAKRGFHIADYWGQGTQVTVSS : high polyreactivity
QVQLVESGGGLVQAGGSLRLICAASGRIFGGNAMGWYRQAPGKERELVAPISRSGGSTYYADSVKVRFTISLDNAKNTVYLQMNSLIPEDTAVYYCAAVRRPGTGKYTEYDYWGQGTQVTVSS : high polyreactivity
QVQLVESGGGLVEAGGSLRISCAASGYIFLRNAMGWYRQAPGKERELVAAIRRTGGSTYYADSVKGRFTISRDNAKNSVYVQMNSLKPEASAVYYCAKRSYTGYEYWGQGNQVTVSS : low polyreactivity
QVQLVESGGGLVQAGGSLRLSSGAYGITFWTYAMGWYRQAHGKERELVAAISNGGSTSYADSVKGRFTISRDNAKNTVYLQINILKPEDTAVYYCASDWATHRPWYWCVYYWGQGTQVTVSS : low polyreactivity
QVQLVESGGGLVQAGGSLRLSCAASGRTFRYNAMGWYRQAPGKERELVAGITWRGGRTYYADSVKGRFTISRDNAKNTVYLQMNSLKPEDTAVYYCNTAGYYWLHYTMDYWGQGTQVTVSS : high polyreactivity
QVQLVESGGRLVQAGGSLRLSCAASGITFYYYAMGWYRQAPGKERELVAAISVSGGSTYYADSVKGRFTISRDNAKNTVYLQMNSLKPEDTAVYYCAAADLLSYTYPEYDYWGQGTQVTVSS : low polyreactivity

Required: polyreactivity (PSR sort gate), one value per sequence below.
1. QVQLVESGGGLVQAGGSLRLSCAASGILSNYYAMGWYRQAPGKERELVASIRLSGGRTYYADSVKGRFTISRDNAKNTVYLQMNSLKPEDTAVYYCAAGTRRTYSKFDYWGQGTQVTVSS
2. QVQLVESGGGLVQAGGSLRLSCAASGIIFRSYAMGWYRQAPGKERELVAGISRRGGSTYYADSVKGRFTISRDNAKNTVYLQMNSLKPEDTAVYYCAKEVAYKPTGYDYWGQGTQVTVSS
3. QVHLVESGGGLVQAGGSLRLSCAASVRTYRGNAMGWYRQAPGKEREMVAAITYRTGSTYYADSVKGRFTISRDNAKNTVYLLMNSLKPEDTAVYYCAAVSGRSYDKYYYWGQGTQVTVSS
4. QVQLVESGGGLVQAGGSLRLSCAASGRIFTYYAMGWFRQAPGKERELVAAISFRGSSTYYADSVKGRVTLSRDNAKNTVYLQRNSLKPEDTAVYYCAAERIARPTFDYWGQGTQVTVSS
5. QVQLVESGGGLVQAGGSLRLSCAASGSTSYPYAMGWYRQAPGKERELVATITSGGRTNYADSVKGRFTISRDNAKNTVYLQMNSLKPEDTAVYYCNARFYRWRSYGYDYWGQGTQVTVSS
6. QVQLVESGGGLVQAGGSLRLSCAASGSTFRSYVMGWYRQAPGKERELGAGISYRGGTTYYADSVKGRFTISRDNAKNTVYLQMNSLKPEDTAVYNCAADSTPYVLSGNYDYWGQGTQVTVSS

["high polyreactivity", "high polyreactivity", "high polyreactivity", "low polyreactivity", "high polyreactivity", "low polyreactivity"]

Required: polyreactivity (PSR sort gate), one value per sequence below.
1. QVQLVESGGGLVQAGGSLRLSCAAYGRTFDTYAMGGYRQAPGKERELVAAITKGGGSTYYADSVKGRFTISRDNAKNTVYLQMNSLKPEDTAVYYCNDRVHGEYFHGIRYYYWGQGTQVTVSS
2. QVQLVESGGGLLQAGGSLRLSCAASGRTYYTNAMGWYRQAPGKERELVAAISRGGGRTYYADSVKGRFTISRDNAMNSVYLQMNSLKPEDTAVYYCAASPYQGQGREYYYWGQGTQVTESS
3. QVQLVESGGGLVQAGGSLRLSCAASGRTFFFYAMGWYRQAPGKERELVASITWSGGTRTYYADSVKGRFTISRDNAKNTVYLQMNSLKPEDTAFYYCAATDSSYWFNRYGGKYYYWGQGTQVTVSS
4. QVQLVESGGGLVQAGGSLRLSCAASGSTFGSNAIGWYRQAPGKERELVAAISKRGGSTYYADSVKGRFTISRDNAKNTVYLQMNSLKPEDTAVYYCAVAYTPSRRYSAYSADRMDYWGQGTQVTVSS
5. QVQLVESGGGLVQAGGSLRLSCAASGSTFRQYAMGWSRQAPGKERELVAAISSSGGSTYYADSVKGRFTISRDNAKNTVYLQMNSLKPEDTAGYYCNARLYGSASWGQPKEYDYWGQGTQVTVSS

["low polyreactivity", "high polyreactivity", "high polyreactivity", "high polyreactivity", "low polyreactivity"]

Required: polyreactivity (PSR sort gate), one value per sequence below.
1. QVQLVESGGGLVQAGCSLRLSCAASGSTFFSNAMGWYRQAPGKFRELVAGITFSGGSTYYADSVKGRFTISRDYAKNTVFLQMNSLKPEDTAVYYCAASPPYKLVWWRRMDYWGQGTQVTVSS
2. QVQLVESGGGLVQAGGSLRLSCAASGFIFTKYTKGWYRPAPGTERELVAAIRSDGVRTYYADSVKGRFTISRDNAKNTVYLQMNSLKPEDTAVYYCAAYKAVPHYYYWGQGTQVTVSS
3. QVQLVESGGGLVQAGGSLRLSCAASGRIFYHYAMGWYRQAPGKERELVATISASGSRTSYADSVKGRFTISRDNAKNTVYLQMNSLKPEDTGVYYCAADAPFWYGLDYWGQGTQVTVSS

low polyreactivity
high polyreactivity
high polyreactivity

Give the measured polyreactivity (PSR sort gate) of QVQLVESGGGLVQAGGSLRLSCAASGITFYDNVMGWYRQAPGKERELVAAITSGGSTNYGDSVKGRFTFSRDNAKNTVYLQMNSLKPEETAVYYCAAQPRVVYEFPYRYGYWGQGTQVTVSS . low polyreactivity
